- Tested on: LOC_OS01G63280-cb003
- Test Name: thermal shift delta Tm vs DMSO control; higher = stronger stabilization (binding);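 also: purified Escherichia coli-expressed rice kinase domain construct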
- Experimental Parameters: 12.5 µM; protein concentration 2 µM
Readout Name: thermal shift delta Tm (°C)
Only the number, expressed in °C, is required.

Q: # query: thermal shift delta Tm of entry "CCC(=O)Nc1cccc(Oc2nc(Nc3ccc(N4CCN(C)CC4)cc3OC)ncc2Cl)c1"
Ans: 0.16

Q: Same question, "O=C1Nc2ccccc2/C1=C1/Nc2ccccc2C1=O" this time
Ans: 0.55

Q: Same question, "C#Cc1cccc(Nc2ncnc3cc(OCCOC)c(OCCO)cc23)c1" this time
Ans: -0.13

Q: Same question, "Cc1cc(Nc2ncnc3ccc(NC4=NC(C)(C)CO4)cc23)ccc1Oc1ccn2ncnc2c1" this time
Ans: -1.49

Q: Same question, "Oc1cc(O)cc(/C=C/c2ccc(O)c(O)c2)c1" this time
Ans: 1.07

====

- Test system: LOC_OS06G16330-cb003
- Sequence (as listed by the source): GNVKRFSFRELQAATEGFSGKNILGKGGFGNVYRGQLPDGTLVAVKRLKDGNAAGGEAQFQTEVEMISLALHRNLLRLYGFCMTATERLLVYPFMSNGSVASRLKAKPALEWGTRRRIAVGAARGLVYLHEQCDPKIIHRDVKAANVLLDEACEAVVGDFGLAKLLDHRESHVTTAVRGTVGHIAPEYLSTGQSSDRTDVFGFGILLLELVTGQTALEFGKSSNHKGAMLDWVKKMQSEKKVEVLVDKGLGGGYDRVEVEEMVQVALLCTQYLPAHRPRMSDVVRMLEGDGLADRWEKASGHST
- Test Name: thermal shift delta Tm vs DMSO control; higher = stronger stabilization (binding)
- Experimental Parameters: 12.5 µM; protein concentration 2 µM
Readout Name: thermal shift delta Tm

Q: # query: thermal shift delta Tm of entry O=C1Cc2c([nH]c3ccc(Br)cc23)-c2ccccc2N1 [Kenpaullone]
Ans: 2.59 °C

Q: Same question, Cc1cc(Nc2cc(N3CCN(C)CC3)nc(Sc3ccc(NC(=O)C4CC4)cc3)n2)n[nH]1 [Tozasertib (VX-680, MK-0457)] this time
Ans: 5.98 °C

Q: Same question, CC(C)(C)c1cc(NC(=O)Nc2ccc(-c3cn4c(n3)sc3cc(OCCN5CCOCC5)ccc34)cc2)no1 [Quizartinib (AC220)] this time
Ans: 0 °C

Q: Same question, "C[C@@H]1CN(CC(=O)Nc2ccc3c(c2)Cc2cccc(-c4cc(=O)cc(N5CCOCC5)o4)c2S3)C[C@H](C)O1" this time
Ans: -0.2 °C

Q: Same question, O=c1c(-c2ccc(O)cc2)coc2cc(O)cc(O)c12 [Genistein] this time
Ans: 0.87 °C

Q: Same question, "CNCc1ccc(-c2cc(-c3nc(-c4ccc(S(=O)(=O)C(C)C)cc4)cnc3N)on2)cc1" this time
Ans: 0.7 °C

Q: Same question, Cc1ccc(C(=O)Nc2ccc(CN3CCN(C)CC3)c(C(F)(F)F)c2)cc1C#Cc1cnc2[nH]ncc2c1 [GZD824 Dimesylate] this time
Ans: 5.01 °C

Q: Same question, CC[C@@](C)(Nc1ccnc(-c2c[nH]c3ncccc23)n1)C(=O)NCC(F)(F)F [Decernotinib (VX-509)] this time
Ans: 8.57 °C

====

Give thermal shift delta Tm for every item shown.
- System: LOC_OS01G57100-cb003
- Test Name: thermal shift delta Tm vs DMSO control; higher = stronger stabilization (binding)
- Experimental Parameters: 12.5 µM; protein concentration 2 µM
Only the number, expressed in °C, is required.

Q: # query: thermal shift delta Tm of entry "N[C@@H]1CCCN(c2c(/C=C3\SC(=O)NC3=O)cccc2-c2ccccc2)C1"
Ans: 0.49

Q: Same question, "CC(=O)c1c(C)c2cnc(Nc3ccc(N4CCNCC4)cn3)nc2n(C2CCCC2)c1=O" this time
Ans: -0.7

Q: Same question, "Cn1c(=O)c(F)c(Nc2ccc(I)cc2F)c2c(=O)n(C[C@@H](O)CO)cnc21" this time
Ans: 3.09

Q: Same question, "CC(C)c1ccc2oc3nc(N)c(C(=O)O)cc3c(=O)c2c1" this time
Ans: 1.39

Q: Same question, "COc1ccc(Oc2cc(NCCC(F)(F)F)c3ncc(-c4ccc(C(=O)NC5CC5)c(C)c4)n3n2)c(F)c1F" this time
Ans: -1.23

Q: Same question, OC(c1cc(-c2ccc(Cl)cc2)nc2ccccc12)C1CCCCN1 (centres undefined) this time
Ans: 2.48

Q: Same question, "O=c1[nH]nc(Sc2ncc([N+](=O)[O-])s2)n1-c1ccc2c(c1)OCCO2" this time
Ans: 6.97

Q: Same question, "CCNC(=O)Nc1ccc(-c2nc3c(c(N4CCOC[C@@H]4C)n2)CCN(C2COC2)C3)cc1" this time
Ans: 1.02

Q: Same question, "C=CC(=O)N[C@H]1CCOC[C@H]1Nc1ncc2cc(-c3c(Cl)c(OC)cc(OC)c3Cl)ccc2n1" this time
Ans: 2.49

Q: Same question, "Cn1c(Nc2ccc(C(F)(F)F)cc2)nc2cc(Oc3ccnc(-c4ncc(C(F)(F)F)[nH]4)c3)ccc21" this time
Ans: 4.82

Q: Same question, Cc1cc(C(=O)Nc2nc3cccc(Cl)c3n2[C@@H]2CCCCN(C(=O)/C=C/CN(C)C)C2)ccn1 [Nazartinib (EGF816, NVS-816)] this time
Ans: 1.05

Q: Same question, "Cc1ccc(NC(=O)c2ccc(CN3CC[C@H](N(C)C)C3)c(C(F)(F)F)c2)cc1Nc1nccc(-c2cncnc2)n1" this time
Ans: 1.86

Q: Same question, "Cn1cc(-c2ccc(F)c(C(F)(F)F)c2)nc1C1CCN(c2ncnc3[nH]ncc23)CC1" this time
Ans: 0.5

Q: Same question, "CS(=O)(=O)CCNCc1ccc(-c2ccc3ncnc(Nc4ccc(OCc5cccc(F)c5)c(Cl)c4)c3c2)o1" this time
Ans: 3.37

Q: Same question, "COc1cccc(-c2cc(=O)c3ccccc3o2)c1N" this time
Ans: -0.23

Q: Same question, COc1cc2c(c(OC)c1OC)-c1c(cc3c(c1OC)OCO3)CC(C)C(C)C2 (centres undefined) [Schisandrin B (Sch B)] this time
Ans: 0.61

Q: Same question, "CC(C)(C)c1cc(/C=C(\C#N)C(N)=S)cc(C(C)(C)C)c1O" this time
Ans: 5.01

Q: Same question, "CCN(CC)CCCCNc1ncc2cc(-c3cc(OC)cc(OC)c3)c(NC(=O)NC(C)(C)C)nc2n1" this time
Ans: 0.87

Q: Same question, "Cc1cc(Nc2nc(N[C@@H](C)c3ncc(F)cn3)ncc2Cl)[nH]n1" this time
Ans: 1.57

Q: Same question, "Cc1nc(NC(=O)N2CCC[C@H]2C(N)=O)sc1-c1ccnc(C(C)(C)C(F)(F)F)c1" this time
Ans: 0.37

Q: Same question, "CCCNC(=O)c1cn2ncnc(Nc3cc(C(=O)NC4CC4)ccc3C)c2c1C" this time
Ans: 0.66

Q: Same question, "CCNC(=O)Nc1ccc(-c2nc(N3CCOC[C@@H]3C)c3c(n2)C(C)(C)S(=O)(=O)C3)cc1" this time
Ans: 2.26

Q: Same question, "Cc1ccc(NC(=O)c2ccc(CN3CCN(C)CC3)cc2)cc1Nc1nc(-c2cccnc2)cs1" this time
Ans: 0.04

Q: Same question, "CCCCNc1ncc2c(-c3ccc(CN4CCN(C)CC4)cc3)cn([C@H]3CC[C@H](O)CC3)c2n1" this time
Ans: 3.5

Q: Same question, "Clc1ccc(C2(c3ccc(-c4cn[nH]c4)cc3)CCNCC2)cc1" this time
Ans: 1.65

Q: Same question, Cc1cc(C)c(/C=C2\C(=O)Nc3ccccc32)[nH]1 [Semaxanib (SU5416)] this time
Ans: 1.1

Q: Same question, "C=CC(=O)Nc1cccc(Oc2nc(Nc3ccc(N4CCN(C)CC4)cc3)nc3ccsc23)c1" this time
Ans: 2.41

Q: Same question, "CC(C)(O)CC(=O)NCCn1ccc2ncnc(Nc3ccc(Oc4cccc(C(F)(F)F)c4)c(Cl)c3)c21" this time
Ans: 2.91

Q: Same question, "COc1cc2nccc(Oc3ccc(NC(=O)Nc4cc(C)on4)c(Cl)c3)c2cc1OC" this time
Ans: 1.99

Q: Same question, "COc1cc2nccc(Oc3ccc(NC(=O)C4(C(=O)Nc5ccc(F)cc5)CC4)cc3)c2cc1OC" this time
Ans: 1.05

Q: Same question, "CNC(=O)c1nn(C)c2c1C(C)(C)Cc1cnc(Nc3ccc(N4CCN(C)CC4)cc3)nc1-2" this time
Ans: 1.59

Q: Same question, CN1CCN(C2CCN(C(=O)Nc3cc(Oc4ccc(NC(=O)C5(C(=O)Nc6ccc(F)cc6)CC5)c(F)c4)ccn3)CC2)CC1 [Golvatinib (E7050)] this time
Ans: 0.49

Q: Same question, "Cc1c(NC(=O)OC[C@@H]2COCCN2)cn2ncnc(Nc3ccc4c(cnn4Cc4cccc(F)c4)c3)c12" this time
Ans: 0.24

Q: Same question, "CS(=O)(=O)N1CCN(Cc2cc3nc(-c4cccc5[nH]ncc45)nc(N4CCOCC4)c3s2)CC1" this time
Ans: 0.25

====

Give thermal shift delta Tm for every item shown.
- Tested on: LOC_OS05G30820-cb001
- Test Name: thermal shift delta Tm vs DMSO control; higher = stronger stabilization (binding)
- Experimental Parameters: 12.5 µM; protein concentration 2 µM
Only the number, expressed in °C, is required.

Q: # query: thermal shift delta Tm of entry "O=C(Nc1cccc(C(F)(F)F)c1)c1cccc2cc(Oc3cc(CO)ncn3)ccc12"
Ans: 0.8

Q: Same question, CO[C@H]1C[C@@H]2CC[C@@H](C)[C@@](O)(O2)C(=O)C(=O)N2CCCC[C@H]2C(=O)O[C@H]([C@H](C)C[C@@H]2CC[C@@H](O)[C@H](OC)C2)CC(=O)[C@H](C)/C=C(\C)[C@@H](O)[C@@H](OC)C(=O)[C@H](C)C[C@H](C)/C=C/C=C/C=C/1C [Rapamycin (Sirolimus)] this time
Ans: 0.5

Q: Same question, "CCN1C(=O)CNc2ncc(-c3ccc(-c4nc[nH]n4)nc3C)nc21" this time
Ans: 0.42
